tested on: tetA promoter (PtetA)-lacZ reporter in E. coli KM3; assay type: cell-based; details: Table 4; no inducer; 48 hrs at 30° C.
For each of the molecules below, state its relative β-galactosidase activity, inducer None.
Could you respond with only the numeric value?

Qu. State, in one line, measured relative β-galactosidase activity, inducer None of L1-44: library L1 hit, sulfonylurea-responsive TetR(B) variant, SEQ ID NO: 13 (protein, Sulfonylurea responsive repressor L1-44) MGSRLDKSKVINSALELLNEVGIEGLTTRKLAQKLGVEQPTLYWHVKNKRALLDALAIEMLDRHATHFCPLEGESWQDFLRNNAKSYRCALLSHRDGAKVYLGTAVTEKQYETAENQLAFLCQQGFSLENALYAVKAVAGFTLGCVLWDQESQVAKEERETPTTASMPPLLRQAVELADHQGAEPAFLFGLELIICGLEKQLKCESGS
Ans. 0.2

Qu. State, in one line, measured relative β-galactosidase activity, inducer None of L1-28: library L1 hit, sulfonylurea-responsive TetR(B) variant (protein, Sulfonylurea responsive repressor L1-28) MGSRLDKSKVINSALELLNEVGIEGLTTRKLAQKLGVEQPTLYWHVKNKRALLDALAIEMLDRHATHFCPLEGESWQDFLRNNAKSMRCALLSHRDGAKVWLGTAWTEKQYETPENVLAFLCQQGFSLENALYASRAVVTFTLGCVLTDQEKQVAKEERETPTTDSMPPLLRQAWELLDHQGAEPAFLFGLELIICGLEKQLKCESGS
Ans. 0.0

Qu. State, in one line, measured relative β-galactosidase activity, inducer None of L1-9: library L1 hit, sulfonylurea-responsive TetR(B) variant, parent of L2 and L4 (protein, Sulfonylurea responsive repressor L1-09) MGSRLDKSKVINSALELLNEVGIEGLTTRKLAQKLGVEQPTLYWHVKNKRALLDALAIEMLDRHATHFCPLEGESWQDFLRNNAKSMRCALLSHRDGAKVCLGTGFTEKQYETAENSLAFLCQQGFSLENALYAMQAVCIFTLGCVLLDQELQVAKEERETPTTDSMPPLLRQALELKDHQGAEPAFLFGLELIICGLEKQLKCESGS
Ans. 0.3

Attribution: patent US8580556B2
